- Procedure text: Cell viability assay of HEK293 cells treated with inhibitors and menadione
- Format: cell-based, human
- Condition details: human, HEK293 cells, 7.5 µM compound, w/o Menadione, 20240515 plate 015, DMSO Ko no Mendione = 100
For each record, write down the corresponding viability at 7.5 µM.
Enter your answer as a number in %; do not include the unit.

Q: # get_value(readout='viability at 7.5 µM', item= Cc1cc(Nc2ccc(NC(=O)c3ccc(Nc4ncnc5ccccc45)cc3)cc2)nc(N)n1 )
Ans: 102

Q: Please give the result for Nc1nccc(Nc2ccc(NC(=O)c3ccc(Nc4ncnc5ccccc45)cc3)cc2)n1 too.
Ans: 90.7

Q: Please give the result for Nc1cc(Nc2ccc(NC(=O)c3ccc(Nc4ccnc5ccccc45)cc3)cc2)ccn1 too.
Ans: 89
